Exercise: state measured pIC50 for each of the compounds provided.
- subjectOfTest: IRAK4 (Homo sapiens, UniProt Q9NWZ3)
- Sequence (Q9NWZ3 whole entry): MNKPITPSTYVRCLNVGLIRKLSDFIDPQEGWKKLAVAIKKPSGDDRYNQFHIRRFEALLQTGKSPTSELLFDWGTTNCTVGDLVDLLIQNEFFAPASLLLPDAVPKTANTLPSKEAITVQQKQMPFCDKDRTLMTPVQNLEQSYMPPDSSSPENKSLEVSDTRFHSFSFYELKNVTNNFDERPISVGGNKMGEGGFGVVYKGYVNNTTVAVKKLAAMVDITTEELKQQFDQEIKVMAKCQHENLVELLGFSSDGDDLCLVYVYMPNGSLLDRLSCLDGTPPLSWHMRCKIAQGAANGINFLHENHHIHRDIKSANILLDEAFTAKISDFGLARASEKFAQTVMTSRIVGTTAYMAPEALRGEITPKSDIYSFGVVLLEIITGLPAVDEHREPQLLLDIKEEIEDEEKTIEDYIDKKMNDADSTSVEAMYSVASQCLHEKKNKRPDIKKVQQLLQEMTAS
- assayMethodText: RBC HotSpot Kinase Assay, IRAK4
- Format: biochemical
- Design: purchased Reaction Biology (RBC), HotSpot kinase assay
- setupConditions: isolated kinase, 33P-ATP
Kindly note that pIC50 refers to -log10 of the concentration in mol/L and answer with the value alone.

stdin: Query (compound): FC(F)(F)C1(c2cn3c(-c4cccc(N[C@@H]5CCCNC5)n4)cnc3cn2)CC1 ; field requested: pIC50
stdout: 8.15

stdin: Query (compound): CC1(c2cn3c(-c4cccc(N[C@H]5CCNC[C@@H]5F)n4)cnc3cn2)CC1 ; field requested: pIC50
stdout: 7.07

stdin: Query (compound): Cn1cc(-c2cn3c(-c4cccc(N[C@H]5CNC[C@@H]5F)n4)cnc3cn2)cn1 ; field requested: pIC50
stdout: 9.00

====

- subjectOfTest: IRAK4 (Homo sapiens, UniProt Q9NWZ3)
- assayMethodText: RBC HotSpot Kinase Assay, IRAK4
- Type: biochemical
- Parameters: purchased Reaction Biology (RBC), HotSpot kinase assay
- setupConditions: isolated kinase, 33P-ATP
assayReadout: pIC50
Kindly note that pIC50 refers to -log10 of the concentration in mol/L and answer with the value alone.

stdin: Requested read-out pIC50, target or system IRAK4 (Homo sapiens, UniProt Q9NWZ3), entry FC(F)COc1cn2c(-c3cccc(N[C@@H]4CCCNC4)n3)cnc2cn1 [Compound 75]
stdout: 8.40

stdin: Requested read-out pIC50, target or system IRAK4 (Homo sapiens, UniProt Q9NWZ3), entry CC1(C)CCN(c2cn3c(-c4cccc(N[C@H]5CNC[C@@H]5F)n4)cnc3cn2)C1=O [Compound 61]
stdout: 7.34

stdin: Requested read-out pIC50, target or system IRAK4 (Homo sapiens, UniProt Q9NWZ3), entry O=C1COCCN1c1cn2c(-c3cccc(N[C@H]4CNCC[C@@H]4F)n3)cnc2cn1 [Compound 112]
stdout: 6.85

stdin: Requested read-out pIC50, target or system IRAK4 (Homo sapiens, UniProt Q9NWZ3), entry O=S1(=O)CCCCN1c1cn2c(-c3nc(N[C@@H]4CCCNC4)c(F)cc3F)cnc2cn1 [Compound 101]
stdout: 7.62

stdin: Requested read-out pIC50, target or system IRAK4 (Homo sapiens, UniProt Q9NWZ3), entry CC(C)Oc1cn2c(-c3cccc(N[C@H]4CNCC[C@@H]4F)n3)cnc2cn1 [compound 132]
stdout: 8.70

stdin: Requested read-out pIC50, target or system IRAK4 (Homo sapiens, UniProt Q9NWZ3), entry FC(F)c1cn2c(-c3cccc(N[C@@H]4CCNC4)n3)cnc2cn1 [Compound 18]
stdout: 9.00

stdin: Requested read-out pIC50, target or system IRAK4 (Homo sapiens, UniProt Q9NWZ3), entry O=C1CCCN1c1cn2c(-c3nc(N[C@H]4CNC[C@@H]4F)c(F)cc3F)cnc2cn1 [Compound 109]
stdout: 8.40

stdin: Requested read-out pIC50, target or system IRAK4 (Homo sapiens, UniProt Q9NWZ3), entry FC(F)c1cn2c(-c3cccc(N[C@@H]4CCCNC4)n3)cnc2cn1 [Compound 17]
stdout: 8.30

stdin: Requested read-out pIC50, target or system IRAK4 (Homo sapiens, UniProt Q9NWZ3), entry CC(C)(O)Cn1cc(-c2cn3c(-c4cccc(N[C@H]5CNC[C@@H]5F)n4)cnc3cn2)cn1 [Compound 54]
stdout: 8.30

stdin: Requested read-out pIC50, target or system IRAK4 (Homo sapiens, UniProt Q9NWZ3), entry CC1(C)CCNCC1Nc1cccc(-c2cnc3cnc(C(F)F)cn23)n1 (centres unmarked) [Compound 24]
stdout: 8.70

stdin: Requested read-out pIC50, target or system IRAK4 (Homo sapiens, UniProt Q9NWZ3), entry CC(O)(c1cn2c(-c3cc(F)cc(N[C@H]4CNC[C@@H]4F)n3)cnc2cn1)C(F)(F)F (single isomer, unassigned) [Compound 83]
stdout: 7.55

stdin: Requested read-out pIC50, target or system IRAK4 (Homo sapiens, UniProt Q9NWZ3), entry O=C1CCCN1c1cn2c(-c3cccc(N[C@@H]4CCCNC4)n3)cnc2cn1 [Compound 120]
stdout: 7.82

stdin: Requested read-out pIC50, target or system IRAK4 (Homo sapiens, UniProt Q9NWZ3), entry O=C1CCCCN1c1cn2c(-c3cccc(N[C@H]4CNCC[C@@H]4F)n3)cnc2cn1 [Compound 115]
stdout: 6.82

stdin: Requested read-out pIC50, target or system IRAK4 (Homo sapiens, UniProt Q9NWZ3), entry F[C@H]1CCNC[C@@H]1Nc1cccc(-c2cnc3cnc(C4(C(F)(F)F)CC4)cn23)n1 [Compound 13]
stdout: 8.30

stdin: Requested read-out pIC50, target or system IRAK4 (Homo sapiens, UniProt Q9NWZ3), entry O=C1CCCCN1c1cn2c(-c3cccc(N[C@H]4CNC[C@@H]4F)n3)cnc2cn1 [Compound 114]
stdout: 6.88

stdin: Requested read-out pIC50, target or system IRAK4 (Homo sapiens, UniProt Q9NWZ3), entry FC(F)n1cc(-c2cn3c(-c4cccc(N[C@@H]5CCCNC5)n4)cnc3cn2)cn1 [Compound 44]
stdout: 7.43

stdin: Requested read-out pIC50, target or system IRAK4 (Homo sapiens, UniProt Q9NWZ3), entry C[C@H]1C[C@@H](Nc2cccc(-c3cnc4cnc(C(F)F)cn34)n2)CCN1 [Compound 22]
stdout: 6.17

stdin: Requested read-out pIC50, target or system IRAK4 (Homo sapiens, UniProt Q9NWZ3), entry C[C@H]1CNC[C@@H]1Nc1cccc(-c2cnc3cnc(C4(C(F)(F)F)CC4)cn23)n1 [Compound 11]
stdout: 8.52

stdin: Requested read-out pIC50, target or system IRAK4 (Homo sapiens, UniProt Q9NWZ3), entry O=C1COCCN1c1cn2c(-c3cccc(N[C@@H]4CCCNC4)n3)cnc2cn1 [Compound 111]
stdout: 6.87

stdin: Requested read-out pIC50, target or system IRAK4 (Homo sapiens, UniProt Q9NWZ3), entry Cn1cc(-c2cn3c(-c4cccc(N[C@@H]5CCNC5)n4)cnc3cn2)cn1 [Compound 49]
stdout: 9.00

stdin: Requested read-out pIC50, target or system IRAK4 (Homo sapiens, UniProt Q9NWZ3), entry c1cc(N[C@@H]2CCCNC2)nc(-c2cnc3cnc(-c4cnn(C5CC5)c4)cn23)c1 [Compound 45]
stdout: 7.92

stdin: Requested read-out pIC50, target or system IRAK4 (Homo sapiens, UniProt Q9NWZ3), entry CC(O)(c1cn2c(-c3cccc(N[C@H]4CNCC[C@@H]4F)n3)cnc2cn1)C(F)(F)F (single isomer, unassigned) [Compound 80]
stdout: 8.52

stdin: Requested read-out pIC50, target or system IRAK4 (Homo sapiens, UniProt Q9NWZ3), entry O=C1CCCCN1c1cn2c(-c3cccc(N[C@@H]4CCCNC4)n3)cnc2cn1 [Compound 113]
stdout: 5.88

stdin: Requested read-out pIC50, target or system IRAK4 (Homo sapiens, UniProt Q9NWZ3), entry CC(C)(O)c1cn2c(-c3nc(N[C@@H]4CCCNC4)c(F)cc3F)cnc2cn1 [Compound 34]
stdout: 8.70

stdin: Requested read-out pIC50, target or system IRAK4 (Homo sapiens, UniProt Q9NWZ3), entry FC(F)n1cc(-c2cn3c(-c4cccc(N[C@H]5CNC[C@@H]5F)n4)cnc3cn2)cn1 [Compound 53]
stdout: 7.92

stdin: Requested read-out pIC50, target or system IRAK4 (Homo sapiens, UniProt Q9NWZ3), entry CC(C)(O)c1cn2c(-c3cccc(N[C@H]4CNC[C@@H](F)C4)n3)cnc2cn1 [Compound 32]
stdout: 8.52

stdin: Requested read-out pIC50, target or system IRAK4 (Homo sapiens, UniProt Q9NWZ3), entry CC(C)(O)Cn1cc(-c2cn3c(-c4cccc(N[C@@H]5CCCNC5)n4)cnc3cn2)cn1 [Compound 46]
stdout: 8.10

====

- subjectOfTest: FLT3 (Homo sapiens)
- Sequence (P36888 27-993): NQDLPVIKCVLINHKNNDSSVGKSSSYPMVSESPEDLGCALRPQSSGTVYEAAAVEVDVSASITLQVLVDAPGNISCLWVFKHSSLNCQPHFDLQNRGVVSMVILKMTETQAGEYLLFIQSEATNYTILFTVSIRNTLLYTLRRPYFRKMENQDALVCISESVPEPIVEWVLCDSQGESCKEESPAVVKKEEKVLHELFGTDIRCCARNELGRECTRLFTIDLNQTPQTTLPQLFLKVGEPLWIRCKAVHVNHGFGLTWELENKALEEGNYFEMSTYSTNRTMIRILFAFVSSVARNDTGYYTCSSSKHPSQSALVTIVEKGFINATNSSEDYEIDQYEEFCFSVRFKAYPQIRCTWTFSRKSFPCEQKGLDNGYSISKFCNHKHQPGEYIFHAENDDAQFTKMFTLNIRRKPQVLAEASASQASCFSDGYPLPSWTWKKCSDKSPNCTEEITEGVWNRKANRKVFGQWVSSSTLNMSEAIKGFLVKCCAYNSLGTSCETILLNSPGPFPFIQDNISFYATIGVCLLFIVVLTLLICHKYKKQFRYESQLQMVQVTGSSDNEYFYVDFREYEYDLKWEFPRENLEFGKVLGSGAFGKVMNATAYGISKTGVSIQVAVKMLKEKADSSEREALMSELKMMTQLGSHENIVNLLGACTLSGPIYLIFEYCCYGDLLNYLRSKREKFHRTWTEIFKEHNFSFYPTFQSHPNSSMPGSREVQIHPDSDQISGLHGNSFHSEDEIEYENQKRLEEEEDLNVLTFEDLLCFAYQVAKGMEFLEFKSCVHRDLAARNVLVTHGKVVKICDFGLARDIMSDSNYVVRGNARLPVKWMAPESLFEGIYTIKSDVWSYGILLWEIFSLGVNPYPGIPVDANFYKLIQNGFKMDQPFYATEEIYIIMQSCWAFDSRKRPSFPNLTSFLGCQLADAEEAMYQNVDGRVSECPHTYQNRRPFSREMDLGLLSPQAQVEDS
- assayMethodText: RBC HotSpot Kinase Assay, FLT3
- Assay type: biochemical
- Set-up: purchased Reaction Biology (RBC), HotSpot kinase assay
- setupConditions: isolated kinase, 33P-ATP
assayReadout: pIC50
Kindly note that pIC50 refers to -log10 of the concentration in mol/L and answer with the value alone.

stdin: Query (compound): CC1(c2cn3c(-c4cccc(N[C@H]5CNC[C@@H]5C(F)(F)F)n4)cnc3cn2)CC1 [Compound 4] ; field requested: pIC50
stdout: 9.05

stdin: Query (compound): OC1(C(F)(F)F)CCN(c2cn3c(-c4cccc(N[C@H]5CNC[C@@H]5F)n4)cnc3cn2)C1 (stereo partly drawn) [Compound 66] ; field requested: pIC50
stdout: 9.00

stdin: Query (compound): C[C@H]1C[C@@H](Nc2cccc(-c3cnc4cnc(C(F)F)cn34)n2)CCN1 [Compound 22] ; field requested: pIC50
stdout: 9.00

stdin: Query (compound): O=C1CCCN1c1cn2c(-c3nc(N[C@H]4CNC[C@@H]4F)c(F)cc3F)cnc2cn1 [Compound 109] ; field requested: pIC50
stdout: 9.15

stdin: Query (compound): CC(C)(O)c1cn2c(-c3nc(N[C@H]4CNCC[C@@H]4F)c(F)cc3F)cnc2cn1 [Compound 35] ; field requested: pIC50
stdout: 9.00

stdin: Query (compound): CC(O)(c1cn2c(-c3nc(N[C@@H]4CCCNC4)c(F)cc3F)cnc2cn1)C(F)(F)F (single isomer, unassigned) [Compound 90] ; field requested: pIC50
stdout: 8.70

stdin: Query (compound): CC(O)(c1cn2c(-c3cc(F)cc(N[C@H]4CNCC[C@@H]4F)n3)cnc2cn1)C(F)(F)F (single isomer, unassigned) [Compound 88] ; field requested: pIC50
stdout: 9.00

stdin: Query (compound): CC(O)(c1cn2c(-c3cccc(N[C@H]4CNC[C@@H]4F)n3)cnc2cn1)C(F)(F)F (single isomer, unassigned) [Compound 77] ; field requested: pIC50
stdout: 9.05

stdin: Query (compound): CC(O)(c1cn2c(-c3nc(N[C@H]4CNC[C@@H]4F)c(F)cc3F)cnc2cn1)C(F)(F)F (single isomer, unassigned) [Compound 91] ; field requested: pIC50
stdout: 8.52

stdin: Query (compound): CC(O)(c1cn2c(-c3nc(N[C@H]4CNCC[C@@H]4F)c(F)cc3F)cnc2cn1)C(F)(F)F (single isomer, unassigned) [Compound 94] ; field requested: pIC50
stdout: 9.00

stdin: Query (compound): O=C1COCCN1c1cn2c(-c3cccc(N[C@@H]4CCCNC4)n3)cnc2cn1 [Compound 111] ; field requested: pIC50
stdout: 9.30

stdin: Query (compound): CC(C)(O)c1cn2c(-c3nc(N[C@H]4CNC[C@@H]4F)c(F)cc3F)cnc2cn1 [Compound 33] ; field requested: pIC50
stdout: 9.22

stdin: Query (compound): CC1(c2cn3c(-c4cccc(N[C@H]5CCNC[C@@H]5F)n4)cnc3cn2)CC1 [Compound 6] ; field requested: pIC50
stdout: 9.22

stdin: Query (compound): CC1(c2cn3c(-c4cccc(N[C@H]5CNC[C@@H]5F)n4)cnc3cn2)CC1 [Compound 1] ; field requested: pIC50
stdout: 9.22
